# Lookup of reported pEC50 keyed by entry
# TGT: human FXR (Homo sapiens, UniProt Q96RI1)
# TEST_DETAILS: FXR reporter assay (cellular FXR activities)
# CONDITION_SUMMARY: FXR reporter cells, 24 hours incubation, luciferase; read-out: Reporter Cell EC50
pEC50: −log10 of the molar value. Structures can show the parent of a compound that is named as a salt.

COMPOUND | TGT | pEC50
NS(=O)(=O)Nc1cccc(C#Cc2ccc(OCc3c(-c4c(Cl)cccc4Cl)noc3C3CC3)cc2Cl)c1 | human FXR (Homo sapiens, UniProt Q96RI1) | 6.00 to 6.70
O=C(O)c1cc(C#Cc2ccc(OCc3c(-c4c(Cl)cccc4Cl)noc3C3CC3)cc2Cl)c2ccn(CCN3CCOCC3)c2c1 [Compound I-95, hydrochloride] | human FXR (Homo sapiens, UniProt Q96RI1) | 7.22 to 7.70
O=C(O)c1cc(C#Cc2ccc(OCc3c(-c4c(Cl)cccc4Cl)noc3C3CC3)cc2Cl)cc(CN2CCC2)c1 | human FXR (Homo sapiens, UniProt Q96RI1) | 6.70 to 7.22
C#Cc1ccc(OCc2c(-c3c(Cl)cccc3Cl)noc2C2CC2)cc1Cl | human FXR (Homo sapiens, UniProt Q96RI1) | 6.00 to 6.70
O=C(O)c1cccc(C#Cc2ccc(OCc3c(-c4c(Cl)cccc4Cl)noc3C3CC3)cc2C(F)(F)F)c1 | human FXR (Homo sapiens, UniProt Q96RI1) | 6.00 to 6.70
C#Cc1cc(C#Cc2ccc(OCc3c(-c4c(Cl)cccc4Cl)noc3C3CC3)cc2Cl)cc(C(=O)O)c1 | human FXR (Homo sapiens, UniProt Q96RI1) | 6.70 to 7.22

// next item, pEC50 requested
Request: Can you share its pEC50? I mean this compound: O=Cc1cc(C#Cc2ccc(OCc3c(-c4c(Cl)cccc4Cl)noc3C3CC3)cc2Cl)cc(C(=O)O)c1
Result: 7.22 to 7.70

----------
Reported EC50 is given for each of the following molecules.
# TGT: human FXR (Homo sapiens)
# Sequence (Q96RI1 1-486): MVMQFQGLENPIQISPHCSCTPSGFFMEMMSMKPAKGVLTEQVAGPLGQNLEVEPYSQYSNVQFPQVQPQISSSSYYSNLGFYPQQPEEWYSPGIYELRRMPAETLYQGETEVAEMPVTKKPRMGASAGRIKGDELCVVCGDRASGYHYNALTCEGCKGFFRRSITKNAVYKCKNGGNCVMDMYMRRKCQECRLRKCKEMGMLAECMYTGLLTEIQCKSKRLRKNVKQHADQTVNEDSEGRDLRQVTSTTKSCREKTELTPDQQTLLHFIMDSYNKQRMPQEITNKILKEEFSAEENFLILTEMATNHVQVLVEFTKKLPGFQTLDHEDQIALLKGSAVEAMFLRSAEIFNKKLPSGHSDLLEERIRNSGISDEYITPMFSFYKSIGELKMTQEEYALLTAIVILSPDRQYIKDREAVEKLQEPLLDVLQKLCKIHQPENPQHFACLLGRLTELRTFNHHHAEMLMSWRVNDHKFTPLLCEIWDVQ
# TEST_DETAILS: FXR reporter assay (cellular FXR activities)
# CONDITION_SUMMARY: FXR reporter cells, 24 hours incubation, luciferase; read-out: Reporter Cell EC50

MOLECULE | EC50
CC(=O)Nc1cc(C#Cc2ccc(OCc3c(-c4c(Cl)cccc4Cl)noc3C3CC3)cc2Cl)cc(C(=O)O)c1 [Compound I-73] | 200 to 1000 nM
O=C(O)c1cc(C#Cc2ccc(OCc3c(-c4c(Cl)cccc4Cl)noc3C3CC3)cc2Cl)c2nc[nH]c2c1 [Compound I-90] | 200 to 1000 nM
CC(C)(C)OC(=O)Nc1cc(C#Cc2ccc(OCc3c(-c4c(Cl)cccc4Cl)noc3C3CC3)cc2Cl)cc(C(=O)O)c1 [Compound I-77] | ≤ 20 nM
O=C(O)c1cccc(C#Cc2ccc(OCc3c(-c4ccccc4C(F)(F)F)noc3C3CC3)cc2Cl)c1 [Compound I-87] | 200 to 1000 nM
CN(C)CCn1ccc2c(C#Cc3ccc(OCc4c(-c5c(Cl)cccc5Cl)noc4C4CC4)cc3Cl)cc(C(=O)O)cc21 [Compound I-92] | 20 to 60 nM
CN(C)c1cc(C#Cc2ccc(OCc3c(-c4c(Cl)cccc4Cl)noc3C3CC3)cc2Cl)ccc1C(=O)O [Compound I-23] | 60 to 200 nM

Consider the record given below.
Request: Reported EC50 for Cc1c(N)cc(C(=O)O)cc1C#Cc1ccc(OCc2c(-c3c(Cl)cccc3Cl)noc2C2CC2)cc1Cl [Compound I-60] : what is it?
Result: 20 to 60 nM

----------
# TGT: human FXR (Homo sapiens, UniProt Q96RI1)
# TEST_DETAILS: FXR reporter assay (cellular FXR activities)
# CONDITION_SUMMARY: FXR reporter cells, 24 hours incubation, luciferase; read-out: Reporter Cell EC50
MEASUREMENT_KIND: EC50

COMPOUND_STRUCTURE_STRING | MEAS_VALUE
O=C(O)c1cc(C#Cc2ccc(OCc3c(-c4c(Cl)cccc4Cl)noc3C3CC3)cc2Cl)cc(C2CC2)c1 | 20 to 60 nM
O=C(O)c1cccc(C#Cc2ccc(OCc3c(-c4c(Cl)cccc4Cl)noc3C3CC3)cc2Cl)n1 | ≤ 20 nM
O=C(O)c1cc(C#Cc2ccc(OCc3c(-c4c(Cl)cccc4Cl)noc3C3CC3)cc2Cl)cc(OC(F)(F)F)c1 | 200 to 1000 nM
O=C(O)c1cc(C#Cc2ccc(OCc3c(-c4c(Cl)cccc4Cl)noc3C3CC3)cc2Cl)c2cn[nH]c2c1 | 20 to 60 nM

Request: Recorded EC50 for CNc1cc(C#Cc2ccc(OCc3c(-c4c(Cl)cccc4Cl)noc3C3CC3)cc2Cl)cc(C(=O)O)c1 , please?
Result: 20 to 60 nM

Request: Sample O=C(O)c1cc(C#Cc2ccc(OCc3c(-c4c(Cl)cccc4Cl)noc3C3CC3)cc2Cl)cc(N2CCC2)c1 — what was its EC50?
Result: 20 to 60 nM

Request: Look up EC50 for this compound: CCN(CC)c1cc(C#Cc2ccc(OCc3c(-c4c(Cl)cccc4Cl)noc3C3CC3)cc2Cl)cc(C(=O)O)c1
Result: 20 to 60 nM

----------
# TGT: human FXR (Homo sapiens)
# Construct: expressed in transfected cells
# TEST_DETAILS: FXR reporter assay (cellular FXR activities)
# Assay type: cell-based
# CONDITION_SUMMARY: read-out: Emax (%) (GW4064 Emax = 100%)
MEASUREMENT_KIND: Emax (%)

COMPOUND_STRUCTURE_STRING | UNIT_OF_MEASUREMENT | MEAS_VALUE
O=C(O)c1cccc(C#Cc2ccc(OCc3c(-c4c(Cl)cccc4Cl)noc3C3CC3)cc2Cl)c1Cl | % | 86
Cc1cc(C#Cc2ccc(OCc3c(-c4c(Cl)cccc4Cl)noc3C3CC3)cc2Cl)cc(C(=O)O)c1 | % | 78
O=C(O)c1cc(C#Cc2ccc(OCc3c(-c4c(Cl)cccc4Cl)noc3C3CC3)cc2Cl)cc2nccnc12 | % | 98
O=C(O)c1cc(C#Cc2ccc(OCc3c(-c4c(Cl)cccc4Cl)noc3C3CC3)cc2Cl)cc2[nH]ncc12 | % | 86

----------
# TGT: human FXR (Homo sapiens)
# Construct: expressed in transfected cells
# TEST_DETAILS: FXR reporter assay (cellular FXR activities)
# Assay type: cell-based
# CONDITION_SUMMARY: read-out: Emax (%) (GW4064 Emax = 100%)
MEASUREMENT_KIND: Emax (%)

MOLECULE | TGT | UNIT_OF_MEASUREMENT | MEAS_VALUE
CCNc1cc(C#Cc2ccc(OCc3c(-c4c(Cl)cccc4Cl)noc3C3CC3)cc2Cl)cc(C(=O)O)c1 [Compound I-53] | human FXR (Homo sapiens) | % | 93
O=C(O)c1cc(C#Cc2ccc(OCc3c(-c4c(Cl)cccc4Cl)noc3C3CC3)cc2Cl)cc2nc(C3CC3)oc12 [Compound I-110] | human FXR (Homo sapiens) | % | 92
O=C(O)c1cncc(C#Cc2ccc(OCc3c(-c4c(Cl)cccc4Cl)noc3C3CC3)cc2Cl)c1 [Compound I-20] | human FXR (Homo sapiens) | % | 94
O=C(O)c1cccc(C#Cc2cc(Cl)c(OCc3c(-c4c(Cl)cccc4Cl)noc3C3CC3)cc2Cl)c1 [Compound I-68] | human FXR (Homo sapiens) | % | 96

----------
Entries and their pEC50 values follow.
# TGT: human FXR (Homo sapiens)
# Sequence (Q96RI1 1-486): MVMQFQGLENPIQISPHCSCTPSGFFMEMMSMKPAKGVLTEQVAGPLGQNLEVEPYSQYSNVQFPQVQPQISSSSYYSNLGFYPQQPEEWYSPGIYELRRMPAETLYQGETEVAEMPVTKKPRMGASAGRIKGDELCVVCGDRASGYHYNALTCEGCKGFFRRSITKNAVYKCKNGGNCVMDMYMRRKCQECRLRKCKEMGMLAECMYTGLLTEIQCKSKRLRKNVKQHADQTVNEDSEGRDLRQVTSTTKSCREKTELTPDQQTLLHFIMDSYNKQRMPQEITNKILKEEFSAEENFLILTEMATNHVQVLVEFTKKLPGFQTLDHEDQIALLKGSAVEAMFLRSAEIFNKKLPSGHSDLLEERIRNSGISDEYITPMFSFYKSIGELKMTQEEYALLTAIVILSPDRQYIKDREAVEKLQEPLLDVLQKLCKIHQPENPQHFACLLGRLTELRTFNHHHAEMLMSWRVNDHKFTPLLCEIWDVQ
# TEST_DETAILS: FXR reporter assay (cellular FXR activities)
# CONDITION_SUMMARY: FXR reporter cells, 24 hours incubation, luciferase; read-out: Reporter Cell EC50
pEC50: −log10 of the molar value.

Take a look at these entries with their results.
COMPOUND_STRUCTURE_STRING | MEAS_VALUE
CN(C)c1ccc(C(=O)O)cc1C#Cc1ccc(OCc2c(-c3c(Cl)cccc3Cl)noc2C2CC2)cc1Cl | 6.00 to 6.70
CCNc1cc(C#Cc2ccc(OCc3c(-c4c(Cl)cccc4Cl)noc3C3CC3)cc2Cl)cc(C(=O)O)c1 | ≥ 7.70
CN(C)c1cc(C#Cc2ccc(OCc3c(-c4c(Cl)cccc4Cl)noc3C3CC3)cc2Cl)cc(C(=O)O)c1 | ≥ 7.70

Request: Data request, read-out pEC50, for CS(=O)(=O)Nc1cc(C#Cc2ccc(OCc3c(-c4c(Cl)cccc4Cl)noc3C3CC3)cc2Cl)cc(C(=O)O)c1
Result: 6.70 to 7.22

Request: For the molecule CC(C)NCCCn1ccc2c(C#Cc3ccc(OCc4c(-c5c(Cl)cccc5Cl)noc4C4CC4)cc3Cl)cc(C(=O)O)cc21 , what pEC50 is on record?
Result: 6.00 to 6.70

Request: Could you tell me which pEC50 is on file for Cc1nc2cc(C#Cc3ccc(OCc4c(-c5c(Cl)cccc5Cl)noc4C4CC4)cc3Cl)cc(C(=O)O)c2nc1C ?
Result: 7.22 to 7.70

Request: Endpoint output: pEC50 of O=C(O)c1cc(C#Cc2ccc(OCc3c(-c4c(Cl)cccc4Cl)noc3C3CC3)cc2Cl)cc(CNC2COC2)c1 . Value?
Result: 6.00 to 6.70
